TESTED_ON: Cholecystokinin receptor type A (Rattus norvegicus, UniProt P30551)
Sequence (P30551 whole entry): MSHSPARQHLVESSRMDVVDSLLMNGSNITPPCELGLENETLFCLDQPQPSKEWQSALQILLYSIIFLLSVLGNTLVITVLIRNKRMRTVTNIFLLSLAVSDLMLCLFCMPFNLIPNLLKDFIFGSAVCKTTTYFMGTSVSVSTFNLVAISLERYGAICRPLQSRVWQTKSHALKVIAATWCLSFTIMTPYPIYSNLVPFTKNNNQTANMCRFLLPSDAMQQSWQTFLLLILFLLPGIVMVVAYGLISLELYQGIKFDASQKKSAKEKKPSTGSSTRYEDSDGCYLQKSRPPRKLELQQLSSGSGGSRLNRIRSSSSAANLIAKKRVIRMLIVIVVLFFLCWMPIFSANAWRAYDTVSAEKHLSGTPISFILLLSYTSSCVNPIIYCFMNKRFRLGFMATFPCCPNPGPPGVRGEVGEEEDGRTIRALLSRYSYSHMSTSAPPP
TEST_METHOD_NOTES: Binding affinity towards CCK-A receptor in rat pancreas using [125I]Bolton-Hunter CCK-8 as radioligand; Value ranges from 12-20 uM
Format: tissue-based
QUANTITY: IC50 (µM)
Numbers only, in µM.

Give the reported IC50 for this compound. O=C1CCN(Cc2ccccc2)CC1Cc1c[nH]c2ccccc12 (stereo unspecified)
16
